# assayName: Metabolic stability in Sprague-Dawley rat liver microsomes assessed as intrinsic clearance at 10 uM preincubated with NADPH regenerating system for 5 mins followed by addition of microsome upto 60 mins by HPLC analysis
# Format: ADME
# testSettings: read-out: CLH
Param threshold (9 µL/min/mg) applies to microsomal CLint at 10 µM; output Criterion met when value >= threshold, Criterion not met when value < threshold.

Below are worked cases with known answers.
Qu. Textbook exercise: given the entry CC(C)(C)c1ccc(C(=O)NCc2ccc(NS(=O)(=O)C(F)(F)F)cc2Cl)cc1 , state whether its microsomal CLint at 10 µM is greater than or equal to 9 µL/min/mg.
Ans. Criterion met

Qu. Also need CS(=O)(=O)Nc1ccc(CNC(=O)c2ccc(C34CC(C3)C4)cc2)c(Cl)c1 , thanks.
Ans. Criterion met

Qu. Also need CS(=O)(=O)Nc1ccc(CNC(=O)c2ccc(N3CCC3)cc2)c(Cl)c1 , thanks.
Ans. Criterion not met

Qu. Also need CC(C)(C)c1ccc(C(=O)NCc2c(Cl)cc(NS(C)(=O)=O)cc2Cl)cc1 , thanks.
Ans. Criterion met

Qu. Also need COc1ccc(C(=O)NCc2ccc(NS(C)(=O)=O)cc2Cl)cc1 , thanks.
Ans. Criterion not met

Qu. Also need CC(C)(C)c1ccc(C(=O)NCc2c(F)cc(NS(C)(=O)=O)cc2F)cc1 , thanks.
Ans. Criterion met

Here is the next item to consider.
Qu. Textbook exercise: given the entry CS(=O)(=O)Nc1ccc(CNC(=O)c2ccc(N3CCCC3)cc2)c(Cl)c1 , state whether its microsomal CLint at 10 µM is greater than or equal to 9 µL/min/mg.
Ans. Criterion met
